Origin of values: the supplement of paper PMC10567573

Test: protein stability index of a GFP-peptide fusion (GPS, HEK-293T) (PSI 1-6); higher = more stable;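 further: 24-mer peptide tiles fused after GFP, lentivirally expressed, FACS-sorted into six equal bins by GFP/DsRed ratio, decoded by Illumina sequencing, PSI is the read-weighted mean bin number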
Settings: treatment: MLN4924 1 uM, 8 h; c terminus: a fixed tail appended
Decision: protein stability index >= 4 yields TRUE, all other cases yield FALSE.

These solved cases illustrate the format of a correct answer.
Form field: protein stability index at least 4? Entry: ENTCLLRGFSGGILAFLVLEAVAG [TSPAN10] FALSE

Form field: protein stability index at least 4? Entry: YLTNCEKLSAKSLQTLRSFSHTLV [ZER1] FALSE

Others:
Form field: protein stability index at least 4? Entry: ESCEEKNQLILTASADRTVIVWDG [WDR41] FALSE

Form field: protein stability index at least 4? Entry: VLFAVGGWCSGDAISSVERYDPQT [KLHL20] FALSE

Form field: protein stability index at least 4? Entry: PKPADFRNPGPGRHRLITQVYLSH [INTS4] FALSE

Form field: protein stability index at least 4? Entry: AAVEGSGGSGGGSHHHHQSRGACT [KCNA4] TRUE

Form field: protein stability index at least 4? Entry: LNGLQHLKAKKVWYDMFRDAAAIL [ZMAT5] FALSE

Form field: protein stability index at least 4? Entry: DGEGAGPGEQGGGKLVLSSLPKRL [ESRRA] TRUE

----------
Test: protein stability index of a GFP-peptide fusion (GPS, HEK-293T) (PSI 1-6); higher = more stable
Conditions: treatment: DMSO; c terminus: a fixed tail appended
Attribute measured: protein stability index
Answers are plain numbers.

protein stability index measured on RMSYGGSTCHAYSNTRDRYGRSWE [RBMY1A1] = 2.62

protein stability index measured on TEKSGKREFDVRQTPQVNINPFTP [WEE1] = 4.42

protein stability index measured on SDYPSPDISPPIFRRGEKLRVISD [SLA] = 3.88

--- query ---
protein stability index measured on SVHVPGPHAMTIQELVDYVNARQK [PTPN9] = 3.49

----------
Task for the reader: assign each of the following sequences its reported protein stability index.
Experiment: protein stability index of a GFP-peptide fusion (GPS, HEK-293T) (PSI 1-6); higher = more stable
Conditions: treatment: MLN4924 1 uM, 8 h; c terminus: a fixed tail appended
Give bare numbers.

Solved entries:
protein stability index measured on KEKANSLKNEIQEVEELDNWQPAV [SPATS1] = 5.25

protein stability index measured on FSTQYRCFSVSMLAGPNDRSDVEK [UFD1] = 3.01

protein stability index measured on PRPRRAKRFASLSRFVETLVVADD [ADAMTS4] = 3.69

protein stability index measured on QREEVEERMWAAIQSWDINSRRNI [ZER1] = 3.69

protein stability index measured on SLQESVEDSLATVKVVLIPVGQEI [IQUB] = 2.24

protein stability index measured on AVTSLSSQIQYMNTVVSTYVTTNV [TMEM106C] = 2.51

Provide protein stability index for all items below, preserving their order.
1. EEVKTPEEEMRSHYVAQTGILWLL [GAGE1]
2. QEGWIHHLARHAVACFLTRGDLWI [CRY1]
3. RELRCKVFPIKHYQDKIRPYIQLP [TRIB1]
4. AFNQNSSLGRHKRTHTGEKPYTCS [ZNF8]
5. LRRHAGLLDGLARRVGILGEELAD [SCARA5]
6. MSSRKVLAIQARKRRPKREKHPKK [SRPK2]
7. YFTQTLLPGLAGPSGEMVKSTTSL [MLH1]

1: 2.44; 2: 2.89; 3: 2.32; 4: 3.79; 5: 3.34; 6: 4.46; 7: 2.51

----------
Assay: protein stability index of a GFP-peptide fusion (GPS, HEK-293T) (PSI 1-6); higher = more stable
Details: treatment: DMSO; c terminus: a fixed tail appended
Task for the reader: assign each of the following sequences its reported protein stability index.

protein stability index measured on PLLLFTYLNSFLHQRIPQSVRILG [SLC29A1] = 2.96

protein stability index measured on RLRGLLRVLRGRPGAGSRRRGRMA [FBXO33] = 2.6

protein stability index measured on FAELSVDMEKILEIIRVILKLYEQ [CCNC] = 2.2

protein stability index measured on LEDIYVMPEYRGQGIGSKIIKKVA [SAT2] = 3.45

protein stability index measured on GRYAYVRGGGDPWTNGSGLALCQR [MCOLN1] = 2.56

Provide protein stability index for all items below, preserving their order.
1. NSKPCISLNGPLSTSRHVMAPVMA [ADAMTS4]
2. AQLFMDHLFAGAEVILLVVMAYDR [OR4A15]
3. MAAWGKKHAGKDPVRDECEERNRF [FAM9B]
4. ASTTRLYLRKGRGETRICKIYDSP [RAD51]
5. DSYIPLHEDLLTRIGEATKPDGTV [NET1]
6. VAERGTTQGCHPAWEPRSESQASR [ZNF8]
7. LHAVADIHCENCKTTLGWKYEQAF [YPEL3]

2.83
2.2
4.59
2.94
4.5
4.48
2.38

----------
Task for the reader: assign each of the following sequences its reported protein stability index.
Assay: protein stability index of a GFP-peptide fusion (GPS, HEK-293T) (PSI 1-6); higher = more stable
Details: treatment: MLN4924 1 uM, 8 h; c terminus: a fixed tail appended
Numbers only.

Solved entries:
protein stability index measured on RQPAFDTFDGSLFAVFPSLNEEQT [ETS2] = 4.04

protein stability index measured on EEIKTWGTVFQELNKLYPTHACRE [TPH1] = 3.02

protein stability index measured on CLVKGIFYHCSNDDEGDSYSDNPC [SPRY1] = 2.89

protein stability index measured on RVQSVDFMRTDPVCQKLLLDAMNY [KLHL14] = 2.64

protein stability index measured on LVATNAHLDHYYQEELPALLKALV [FCHSD1] = 2.19

Provide protein stability index for all items below, preserving their order.
1. ASLGEKRDHHSTHYRASEEEPEYG [CHGB]
2. MAVDKDTTNVGRYPVGRFPSLHVV [FEM1A]

[5.34, 2.72]

Provide protein stability index for all items below, preserving their order.
1. IVLAACSDYFCAMFTSELSEKGKP [KLHL12]
2. EIYKRFLTRMTRVSEFLKVAEQVG [SNAP91]
3. INIKGISEAKADKILAEAAKLVPM [RAD51]

3.05
2.45
2.42

Provide protein stability index for all items below, preserving their order.
1. SSDRSRDSSHERTESQLTPCIRNV [BTBD10]
2. INTLNGLKLQTKTIKVSYARPSSA [ELAVL3]
3. VAPADVRRLLSYCKGRDHGVLDAL [ZSWIM9]
4. CLIRSLLRREPSERLTAPEILLHP [TRIB1]
5. VKTGEDGSNLDDAKGLAESLELPK [FANCE]
6. GRYAYVRGGGDPWTNGSGLALCQR [MCOLN1]

5
2.39
2.68
2.2
5.49
3.02

Provide protein stability index for all items below, preserving their order.
1. RLVDAVLGAEIRNGMAIIRPPGHH [HDAC6]
2. SEMECQNQEYKMLLDIKTRLEQEI [KRT13]
3. VVAVDRDSGQNAWLSYRLLKASEP [PCDHGA10]
4. SYPNPNEDKCPGNYTNPLKVQTVI [TMEM192]
5. LTAHLLPPRQALGSLCSPWAAPRV [YPEL3]

1: 2.02; 2: 3.82; 3: 2.6; 4: 3.29; 5: 2.45

Provide protein stability index for all items below, preserving their order.
1. HYRASEEEPEYGEEIKGYPGVQAP [CHGB]
2. PKRLRCWEEEEDHEKERPEHKSLE [FANCE]
3. NQAGYFMLPTVITDIKDESCCMTE [ALDH8A1]
4. NKKHGEAEKKKPKTQIVCKHFLEA [ZC3H15]

[5.04, 5.37, 3.71, 4.14]

Provide protein stability index for all items below, preserving their order.
1. GLSAEDGVWAVIISHQQCWASTSP [TRIM15]
2. QGHPPSLFPPKAKSNQPKSLEDLI [ATE1]

[2.39, 4.19]

Provide protein stability index for all items below, preserving their order.
1. HKHVVQFYHYFEDKENIYILLEYC [PLK2]
2. LERYVASLMPLQKSISPWKSPPQL [DENND6A]
3. SILKAMGKTKKDYQEASNLEQFVT [NECAB1]
4. HNYNILIATLRVALPSVMRFCCCV [MCOLN1]
5. GMSTIRPNPGFSMLDFLSERPWIK [APMAP]
6. MDEKVFTKELDQWIEQLNECKQLS [PPP2CA]

1. 2.37
2. 2.21
3. 3.04
4. 2.9
5. 2.76
6. 4.15

Provide protein stability index for all items below, preserving their order.
1. GKSILLFGGAAAVAILAVAIGVAL [BCL2L13]
2. QDAPLSDCTETIEGLELTEQTFSP [ADD1]
3. STLLGEMDLLTQSLGVDTLPPPDP [APBB1IP]
4. PLLLFTYLNSFLHQRIPQSVRILG [SLC29A1]
5. VIDAEPFIRCSLQCRDLVDEAKKF [KLHL12]

1: 2.87; 2: 5.3; 3: 4.03; 4: 2.97; 5: 2.35
